Biological target: Tyrosine-protein kinase ABL1 [T315I] (Homo sapiens, UniProt P00519, T315I)
Assay: In Vitro Kinase Assay
Experimental Endpoint: IC50 (µM)
Please respond with the number in µM and leave the unit unwritten.

For Cc1cccc(C)c1/C=C/n1cnc2c(Nc3ccc(P(C)(C)=O)cc3)ncnc21 [AP24149] on Tyrosine-protein kinase ABL1 [T315I] (Homo sapiens, UniProt P00519, T315I), measured IC50 was 8.9

---

Target: Proto-oncogene tyrosine-protein kinase Src (Homo sapiens, UniProt P12931)
Sequence (P12931 whole entry, looked up): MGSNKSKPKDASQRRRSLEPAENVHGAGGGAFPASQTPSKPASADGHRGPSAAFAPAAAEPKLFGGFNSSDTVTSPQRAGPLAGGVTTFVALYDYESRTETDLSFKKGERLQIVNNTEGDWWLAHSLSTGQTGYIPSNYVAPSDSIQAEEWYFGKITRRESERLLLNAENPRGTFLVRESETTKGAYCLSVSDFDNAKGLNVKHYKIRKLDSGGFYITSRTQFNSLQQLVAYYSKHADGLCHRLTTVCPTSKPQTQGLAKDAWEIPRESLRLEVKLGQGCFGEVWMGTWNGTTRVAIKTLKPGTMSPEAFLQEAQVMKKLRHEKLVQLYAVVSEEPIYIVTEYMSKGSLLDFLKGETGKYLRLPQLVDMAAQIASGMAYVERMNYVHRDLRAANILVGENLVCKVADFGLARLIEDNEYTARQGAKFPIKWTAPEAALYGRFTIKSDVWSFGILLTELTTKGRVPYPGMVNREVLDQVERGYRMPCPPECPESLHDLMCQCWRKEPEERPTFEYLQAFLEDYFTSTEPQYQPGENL
Assay: In vitro kinase assay using Abl, Abl T315I or Src kinase.
Experimental Endpoint: IC50 (nM)
Please respond with the number in nM and leave the unit unwritten.

Data point: `Cc1cccc(C)c1/C=C/n1cnc2c(Nc3ccc(P(C)(C)=O)cc3)ncnc21` ; IC50 = 9.1
